The following compounds have recorded Ki on Kappa-type opioid receptor (Homo sapiens, UniProt P41145).
Sequence (P41145 whole entry): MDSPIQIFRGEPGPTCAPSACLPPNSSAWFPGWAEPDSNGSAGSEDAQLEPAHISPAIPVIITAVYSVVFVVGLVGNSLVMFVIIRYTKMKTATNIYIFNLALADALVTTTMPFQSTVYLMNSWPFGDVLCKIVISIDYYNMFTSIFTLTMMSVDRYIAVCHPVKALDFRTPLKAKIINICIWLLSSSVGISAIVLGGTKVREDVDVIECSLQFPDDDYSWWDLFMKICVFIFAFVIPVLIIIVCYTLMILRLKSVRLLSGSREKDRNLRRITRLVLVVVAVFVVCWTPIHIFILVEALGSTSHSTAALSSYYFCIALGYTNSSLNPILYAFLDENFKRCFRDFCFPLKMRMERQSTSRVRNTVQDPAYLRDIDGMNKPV
Please give a number only; it is taken to be in nM.

A selection of reference data follows.
COC(=O)c1ccc([C@@H]2C[C@]3(C)[C@H]4C(=O)[C@@H](OC(C)=O)C[C@@H](C(=O)OC)[C@]4(C)CC[C@H]3C(=O)O2)cc1C(=O)OC = 286
COC(=O)[C@@H]1C[C@H](OC(C)=O)C(=O)[C@H]2[C@@]1(C)CC[C@H]1C(=O)O[C@H](C3=CC4OC3c3ccccc34)C[C@]21C (stereo not given in full) = 790
COC(=O)C1=C(C(=O)OC)C2OC1C=C2[C@@H]1C[C@]2(C)[C@H]3C(=O)[C@@H](OC(C)=O)C[C@@H](C(=O)OC)[C@]3(C)CC[C@H]2C(=O)O1 (stereo not given in full) = 60

# returns recorded Ki (system: Kappa-type opioid receptor (Homo sapiens, UniProt P41145)) for CCOC(=O)C1=C(C(=O)OCC)C2OC1C=C2[C@@H]1C[C@]2(C)[C@H]3C(=O)[C@@H](OC(C)=O)C[C@@H](C(=O)OC)[C@]3(C)CC[C@H]2C(=O)O1 (stereo not given in full) 120
